Entries and their measured IC50 follow.
Target: glutaminase (GAC) (Homo sapiens, UniProt O94925)
Sequence (O94925 55-598 isoform O94925-3 limits assumed): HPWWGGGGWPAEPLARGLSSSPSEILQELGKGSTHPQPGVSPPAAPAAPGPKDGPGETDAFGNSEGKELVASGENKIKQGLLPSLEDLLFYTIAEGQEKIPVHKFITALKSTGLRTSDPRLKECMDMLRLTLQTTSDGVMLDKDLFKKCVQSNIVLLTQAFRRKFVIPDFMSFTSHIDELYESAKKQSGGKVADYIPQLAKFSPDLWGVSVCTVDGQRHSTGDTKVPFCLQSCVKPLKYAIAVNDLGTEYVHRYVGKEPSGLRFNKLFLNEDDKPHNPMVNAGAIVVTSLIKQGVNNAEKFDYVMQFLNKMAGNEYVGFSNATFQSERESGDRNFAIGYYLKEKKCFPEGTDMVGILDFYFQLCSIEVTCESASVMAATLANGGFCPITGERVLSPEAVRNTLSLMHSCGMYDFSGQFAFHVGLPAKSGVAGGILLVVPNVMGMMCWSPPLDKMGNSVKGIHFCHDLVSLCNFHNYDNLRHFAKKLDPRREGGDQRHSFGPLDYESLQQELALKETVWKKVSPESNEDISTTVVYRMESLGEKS

Check out these entries, answers already filled in.
1) CCN(CC)c1cccc(CC(=O)Nc2nnc([C@H]3CCC[C@H](c4nnc(NC(=O)Cc5cccc(N(CC)CC)c5)s4)C3)s2)c1; 500 to 1000 nM
2) O=C(Cc1ccccc1)Nc1nnc([C@@H]2CCC[C@H](c3nnc(NC(=O)Cc4ccccc4)s3)C2)s1; 1000 to 2000 nM
3) O=C(Cc1c[nH]c2ccccc12)Nc1nnc([C@H]2CCC[C@H](c3nnc(NC(=O)Cc4c[nH]c5ccccc45)s3)C2)s1; < 100 nM

query: IC50 of COc1ccccc1CC(=O)Nc1nnc(C2CCC(c3nnc(NC(=O)Cc4ccccc4OC)s3)C2)s1 (stereo not drawn) on glutaminase (GAC) (Homo sapiens, UniProt O94925)?
result: 100 to 500 nM

query: IC50 of `O=C(Cc1ccc(N2CCOCC2)cc1)Nc1nnc([C@H]2CCC[C@H](c3nnc(NC(=O)Cc4ccc(N5CCOCC5)cc4)s3)C2)s1` on glutaminase (GAC) (Homo sapiens, UniProt O94925)?
result: 100 to 500 nM

query: IC50 of `O=C(Cc1csc(N2CCOCC2)n1)Nc1nnc([C@H]2CCC[C@H](c3nnc(NC(=O)Cc4csc(N5CCOCC5)n4)s3)C2)s1` on glutaminase (GAC) (Homo sapiens, UniProt O94925)?
result: 100 to 500 nM

###

target: glutaminase (GAC) (Homo sapiens, UniProt O94925)
pIC50: −log10 of the molar value.
Entries and their measured pIC50 follow.

1. O=C(Cc1cccc(N2CC(F)(F)C2)c1)Nc1nnc([C@H]2CCC[C@H](c3nnc(NC(=O)Cc4cccc(N5CC(F)(F)C5)c4)s3)C2)s1; 6.30 to 7.00
2. O=C(Cc1ccccn1)Nc1nnc([C@@H]2CC[C@H](c3nnc(NC(=O)Cc4ccccn4)s3)C2)s1; 6.00 to 6.30
3. O=C(Cc1cccc(OC(F)(F)F)c1)Nc1nnc([C@H]2CCC[C@H](c3nnc(NC(=O)Cc4cccc(OC(F)(F)F)c4)s3)C2)s1; 5.70 to 6.00
4. O=C(Cc1cccc(N2CC(F)(F)C2)n1)Nc1nnc([C@H]2CCC[C@H](c3nnc(NC(=O)C4CC4)s3)C2)s1; 6.30 to 7.00
5. O=C(Cc1cscn1)Nc1nnc([C@H]2CCC[C@H](c3nnc(NC(=O)Cc4cscn4)s3)C2)s1; > 7.00
6. COc1ccc(CC(=O)Nc2nnc(C3CCCCC(c4nnc(NC(=O)Cc5ccc(OC)cc5)s4)C3)s2)cc1 (stereo not shown); 5.70 to 6.00

# evaluate next
query: pIC50 of O=C(Cc1ccccn1)Nc1nnc(CC2CCC(Cc3nnc(NC(=O)Cc4ccccn4)s3)C2)s1 (stereo not shown) on glutaminase (GAC) (Homo sapiens, UniProt O94925)?
result: 5.00 to 5.70

###

Entries and their measured IC50 follow.
Biological target: glutaminase (GAC) (Homo sapiens, UniProt O94925)
Sequence (O94925 55-598 isoform O94925-3 limits assumed): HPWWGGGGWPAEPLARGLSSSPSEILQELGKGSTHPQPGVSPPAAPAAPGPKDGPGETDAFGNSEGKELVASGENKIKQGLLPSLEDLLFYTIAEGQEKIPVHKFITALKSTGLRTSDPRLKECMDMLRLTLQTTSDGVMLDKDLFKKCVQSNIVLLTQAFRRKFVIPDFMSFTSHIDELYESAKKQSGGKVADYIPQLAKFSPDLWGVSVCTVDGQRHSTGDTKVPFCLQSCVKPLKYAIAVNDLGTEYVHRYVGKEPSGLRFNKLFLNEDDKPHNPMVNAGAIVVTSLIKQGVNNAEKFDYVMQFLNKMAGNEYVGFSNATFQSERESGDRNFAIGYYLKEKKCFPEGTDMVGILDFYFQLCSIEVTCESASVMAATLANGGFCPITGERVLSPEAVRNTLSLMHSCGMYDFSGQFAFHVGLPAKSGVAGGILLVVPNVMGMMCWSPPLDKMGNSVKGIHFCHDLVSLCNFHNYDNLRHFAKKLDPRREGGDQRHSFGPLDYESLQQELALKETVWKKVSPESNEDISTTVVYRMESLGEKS

Check out these entries, answers already filled in.
1. O=C(Cc1ccccc1)Nc1nnc(CC2CC(Cc3nnc(NC(=O)Cc4ccccc4)s3)C2)s1 (stereo not shown) [Compound 8]; 100 to 500 nM
2. O=C(Cc1cccc(N2CC(F)C2)n1)Nc1nnc([C@H]2CCC[C@H](c3nnc(NC(=O)Cc4cccc(N5CC(F)C5)n4)s3)C2)s1 [Compound 251]; < 100 nM
3. O=C(Cc1cccc2[nH]ccc12)Nc1nnc([C@@H]2CCC[C@H](c3nnc(NC(=O)Cc4cccc5[nH]ccc45)s3)C2)s1 [Compound 25]; 500 to 1000 nM

query: Which value of IC50 has been reported for COc1ccccc1CC(=O)Nc1nnc([C@@H]2CCCC[C@H](c3nnc(NC(=O)Cc4ccccc4OC)s3)C2)s1 [Compound 125] in the records?
result: 1000 to 2000 nM

query: Which value of IC50 has been reported for O=C(Cc1ccccn1)Nc1nnc(C2CCCCC(c3nnc(NC(=O)Cc4ccccn4)s3)C2)s1 (stereo not shown) [Compound 122] in the records?
result: 1000 to 2000 nM

query: Which value of IC50 has been reported for Nc1ccc(CC(=O)Nc2nnc([C@H]3CCC[C@H](c4nnc(NC(=O)Cc5ccc(N)cn5)s4)C3)s2)nc1 [Compound 233] in the records?
result: < 100 nM

query: Which value of IC50 has been reported for NCc1cccc(CC(=O)Nc2nnc([C@H]3CCC[C@H](c4nnc(NC(=O)Cc5cccc(CN)n5)s4)C3)s2)n1 [Compound 244] in the records?
result: 100 to 500 nM

###

IC50 values recorded for glutaminase (GAC) (Homo sapiens, UniProt O94925)

1. COc1ccc(F)c(CC(=O)Nc2nnc([C@H]3CCC[C@H](c4nnc(NC(=O)Cc5cc(OC)ccc5F)s4)C3)s2)c1 [Compound 248]; < 0.1 µM

query: IC50 of CN(C)C(=O)c1ccc(CC(=O)Nc2nnc([C@H]3CCC[C@H](c4nnc(NC(=O)Cc5ccc(C(=O)N(C)C)cn5)s4)C3)s2)nc1 [Compound 234] on glutaminase (GAC) (Homo sapiens, UniProt O94925)?
result: 0.1 to 0.5 µM

query: IC50 of COc1ccccc1CC(=O)Nc1nnc([C@H]2CCC[C@H](c3nnc(NC(C)=O)s3)C2)s1 [Compound 94] on glutaminase (GAC) (Homo sapiens, UniProt O94925)?
result: < 0.1 µM

query: IC50 of COC1CN(c2cccc(CC(=O)Nc3nnc([C@H]4CCC[C@H](c5nnc(NC(=O)Cc6cccc(N7CC(OC)C7)n6)s5)C4)s3)n2)C1 [Compound 270] on glutaminase (GAC) (Homo sapiens, UniProt O94925)?
result: < 0.1 µM

query: IC50 of O=C(Cc1ccccc1[N+](=O)[O-])Nc1nnc([C@H]2CCC[C@H](c3nnc(NC(=O)Cc4ccccc4[N+](=O)[O-])s3)C2)s1 [Compound 57] on glutaminase (GAC) (Homo sapiens, UniProt O94925)?
result: 0.1 to 0.5 µM

query: IC50 of O=C(Cc1cccs1)Nc1nnc([C@H]2CCC[C@H](c3nnc(NC(=O)Cc4cccs4)s3)C2)s1 [Compound 59] on glutaminase (GAC) (Homo sapiens, UniProt O94925)?
result: < 0.1 µM

###

pIC50: −log10 of the molar value.
pIC50 values recorded for glutaminase (GAC) (Homo sapiens, UniProt O94925)

Check out these entries, answers already filled in.
1. CN(C)c1ccc(CC(=O)Nc2nnc([C@H]3CCC[C@H](c4nnc(NC(=O)Cc5ccc(N(C)C)cn5)s4)C3)s2)nc1; > 7.00
2. CC(=O)Nc1nnc([C@H]2CCC[C@H](c3nnc(NC(=O)Cc4ccccn4)s3)C2)s1; > 7.00
3. COc1cc(CC(=O)Nc2nnc([C@H]3CCC[C@H](c4nnc(NC(=O)Cc5ccnc(OC)c5)s4)C3)s2)ccn1; > 7.00
4. O=C(Cc1ccccn1)Nc1nnc([C@@H]2CCC[C@H](c3nnc(NC(=O)Cc4ccccn4)s3)C2)s1 [Compound 102]; 6.30 to 7.00

query: Which value of pIC50 has been reported for `Nc1cccc(CC(=O)Nc2nnc([C@H]3CCC[C@H](c4nnc(NC(=O)Cc5cccc(N)n5)s4)C3)s2)n1` in the records?
result: > 7.00

query: Which value of pIC50 has been reported for O=C(Cc1ccccn1)Nc1nnc([C@@H]2CCC[C@H](c3nnc(NC(=O)Cc4ccccn4)s3)C2)s1 [Compound 20] in the records?
result: 5.70 to 6.00

query: Which value of pIC50 has been reported for `CC(=O)Nc1nnc([C@@H]2CCC[C@@H](c3nnc(NC(=O)Cc4cn(C)c5ccccc45)s3)C2)s1` in the records?
result: 6.30 to 7.00

Data provenance: patent US9029531B2
